# Test system: SK-BR-3 breast cancer cells
# Method summary: MTS cell viability assay, SK-BR-3
# Type: cell-based, human
# Condition details: SK-BR-3, 48 h treatment, Table 4; read-out: EC50 (effective concentration that resulted in 50% cell viability)
Metric: pEC50
The read-out pEC50 is expressed as -log10 of concentration in moles per litre.

1. [NH2][Pt]([NH2])([Cl])[Cl] [CDDP, Cisplatin, reference compound] :: 4.64
2. CCCCCOc1ccnc(-c2cc(OCCCCC)ccn2)c1.[Cl][Pt][Cl] :: 5.62
3. COc1ccnc(-c2cc(OC)ccn2)c1.[Cl][Pt][Cl] :: 4.64

// lookup pEC50 for CCCCOc1ccnc(-c2cc(OCCCC)ccn2)c1.[Cl][Pt][Cl]
5.68

Cool, now CCOc1ccnc(-c2cc(OCC)ccn2)c1.[Cl][Pt][Cl]
5.74

Cool, now CCCOc1ccnc(-c2cc(OCCC)ccn2)c1.[Cl][Pt][Cl]
5.76

Cool, now CCCCCCOc1ccnc(-c2cc(OCCCCCC)ccn2)c1.[Cl][Pt][Cl]
5.74

* * *

# Tested on: PC-3 prostate cancer cells
# Method summary: MTS cell viability assay, PC-3
# Format: cell-based, human
# Condition details: PC-3, 1 h treatment, Table 2; read-out: EC50 (effective concentration that resulted in 50% cell viability)
Property: EC50; scope: individual compounds
The reply should be a number in µM, with the unit left off.

Worked set:
1. CCCCCCOc1ccnc(-c2cc(OCCCCCC)ccn2)c1.[Cl][Pt][Cl] [Pt(II)-6C] :: 2.24
2. CCOc1ccnc(-c2cc(OCC)ccn2)c1.[Cl][Pt][Cl] [Pt(II)-2C] :: 22
3. CCCCOc1ccnc(-c2cc(OCCCC)ccn2)c1.[Cl][Pt][Cl] [Pt(II)-4C] :: 11
4. [NH2][Pt]([NH2])([Cl])[Cl] [CDDP, Cisplatin, reference compound] :: 200

// lookup EC50 for CCCOc1ccnc(-c2cc(OCCC)ccn2)c1.[Cl][Pt][Cl] [Pt(II)-3C]
5

Cool, now CCCCCOc1ccnc(-c2cc(OCCCCC)ccn2)c1.[Cl][Pt][Cl] [Pt(II)-5C]
7

* * *

# System: T-47D breast cancer cells
# Method summary: MTS cell viability assay, T-47D
# Assay type: cell-based, human
# Condition details: 1 h treatment, Table 2, read-out: EC50 (effective concentration that resulted in 50% cell viability)
Lab note: anything with EC50 below 10 µM is marked TRUE; values at 10 µM or higher are marked FALSE.

Reference set, count: 6
1. COc1ccnc(-c2cc(OC)ccn2)c1.[Cl][Pt][Cl] :: FALSE
2. CCOc1ccnc(-c2cc(OCC)ccn2)c1.[Cl][Pt][Cl] :: TRUE
3. CCCCOc1ccnc(-c2cc(OCCCC)ccn2)c1.[Cl][Pt][Cl] :: FALSE
4. CCCOc1ccnc(-c2cc(OCCC)ccn2)c1.[Cl][Pt][Cl] :: TRUE
5. [NH2][Pt]([NH2])([Cl])[Cl] [CDDP, Cisplatin, reference compound] :: FALSE
6. CCCCCOc1ccnc(-c2cc(OCCCCC)ccn2)c1.[Cl][Pt][Cl] :: TRUE

Could you now consider this next compound?
# strict comparison: is reported EC50 < 10 µM? input = CCCCCCOc1ccnc(-c2cc(OCCCCCC)ccn2)c1.[Cl][Pt][Cl]
TRUE

* * *

# System: ZR-75-1 breast cancer cells
# Method summary: MTS cell viability assay, ZR-75-1
# Assay type: cell-based, human
# Condition details: ZR-75-1, 1 h treatment, Table 3; read-out: EC50 (effective concentration that resulted in 50% cell viability)
# Experimental: Human breast (HCC38, MCF-7, MDA-MB-231, SK-BR-3, T-47D, and ZR-75-1), lung (A549 and H520), and prostate (DU145 and PC-3) cancer cell lines were obtained from American Culture Type Collection (ATCC). […] Cells were cultured at a density of 2-3.5×10^3 cells per well in flat bottomed 96-well plates in 100 μL of complete growth medium and incubated for 2 days to reach ˜50% confluence. […] Viability of treated groups was calculated as a percent of control and graphed with GraphPad Prism. […]
Property: EC50; scope: individual compounds
The reply should be a number in µM, with the unit left off.

1. CC(=O)[O][Pt]([Cl])([Cl])[O]C(C)=O.CCCOc1ccnc(-c2cc(OCCC)ccn2)c1 [Pt(IV)-3C] :: 24
2. [NH2][Pt]([NH2])([Cl])[Cl] [CDDP, Cisplatin, reference compound] :: 260

// lookup EC50 for CC(=O)[O][Pt]([Cl])([Cl])[O]C(C)=O.CCCCCOc1ccnc(-c2cc(OCCCCC)ccn2)c1 [Pt(IV)-5C]
1.6

* * *

# Tested on: A549 lung cancer cells
# Method summary: MTS cell viability assay, A549
# Assay type: cell-based, human
# Condition details: A549, 48 h, Table 5; read-out: EC50 (effective concentration that resulted in 50% cell viability)
Property: EC50; scope: individual molecules
The reply should be a number in µM, with the unit left off.

1. N.N.O=C([O-])C1(C(=O)[O-])CCC1.[Pt+2] [Carboplatin, carboplatin, reference compound] :: 300
2. [NH2][Pt]([NH2])([Cl])[Cl] [CDDP, Cisplatin, reference compound] :: 500
3. CC(=O)[O][Pt]([Cl])([Cl])[O]C(C)=O.CCCOc1ccnc(-c2cc(OCCC)ccn2)c1 :: 23

Now examine the next entry.
Under A549 lung cancer cells: EC50 value of CC(=O)[O][Pt]([Cl])([Cl])[O]C(C)=O.CCCCCOc1ccnc(-c2cc(OCCCCC)ccn2)c1 ?
2.2

* * *

# Test system: HCC38 breast cancer cells
# Method summary: MTS cell viability assay, HCC38
# Format: cell-based, human
# Condition details: HCC38, 1 h treatment, Table 3; read-out: EC50 (effective concentration that resulted in 50% cell viability)
Property: pEC50; scope: individual compounds
The read-out pEC50 is expressed as -log10 of concentration in moles per litre.

Worked set:
1. CC(=O)[O][Pt]([Cl])([Cl])[O]C(C)=O.CCCCCOc1ccnc(-c2cc(OCCCCC)ccn2)c1 :: 5.52
2. [NH2][Pt]([NH2])([Cl])[Cl] [CDDP, Cisplatin, reference compound] :: 3.52
3. CC(=O)[O][Pt]([Cl])([Cl])[O]C(C)=O.CCOc1ccnc(-c2cc(OCC)ccn2)c1 :: 4.03

Now examine the next entry.
// lookup pEC50 for CC(=O)[O][Pt]([Cl])([Cl])[O]C(C)=O.CCCOc1ccnc(-c2cc(OCCC)ccn2)c1
4.59

* * *

# Test system: MDA-MB-231 breast cancer cells
# Method summary: MTS cell viability assay, MDA-MB-231
# Type: cell-based, human
# Condition details: MDA-MB-231, 48 h treatment, Table 4; read-out: EC50 (effective concentration that resulted in 50% cell viability)
Property: EC50; scope: individual molecules

Worked set:
1) [NH2][Pt]([NH2])([Cl])[Cl] [CDDP, Cisplatin, reference compound] :: 21 µM
2) CCOc1ccnc(-c2cc(OCC)ccn2)c1.[Cl][Pt][Cl] :: 20 µM
3) COc1ccnc(-c2cc(OC)ccn2)c1.[Cl][Pt][Cl] :: > 100 µM
4) CCCCOc1ccnc(-c2cc(OCCCC)ccn2)c1.[Cl][Pt][Cl] :: 2.4 µM

// lookup EC50 for CCCOc1ccnc(-c2cc(OCCC)ccn2)c1.[Cl][Pt][Cl]
2.2 µM

Cool, now CCCCCCOc1ccnc(-c2cc(OCCCCCC)ccn2)c1.[Cl][Pt][Cl]
4 µM

Cool, now CCCCCOc1ccnc(-c2cc(OCCCCC)ccn2)c1.[Cl][Pt][Cl]
4.1 µM

* * *

# Test system: DU145 prostate cancer cells
# Format: cell-based, human
# Condition details: DU145, 1 h treatment, Table 3; read-out: EC50 (effective concentration that resulted in 50% cell viability)
Metric: pEC50
The read-out pEC50 is expressed as -log10 of concentration in moles per litre.

Worked set:
1) CC(=O)[O][Pt]([Cl])([Cl])[O]C(C)=O.CCCOc1ccnc(-c2cc(OCCC)ccn2)c1 [Pt(IV)-3C] :: 4.62
2) [NH2][Pt]([NH2])([Cl])[Cl] [CDDP, Cisplatin, reference compound] :: 3.40

Under DU145 prostate cancer cells: pEC50 value of CC(=O)[O][Pt]([Cl])([Cl])[O]C(C)=O.CCCCCOc1ccnc(-c2cc(OCCCCC)ccn2)c1 [Pt(IV)-5C] ?
6.00
